Reported viability at 24 h, 20 µM by item:
- testProtocol: Cytotoxicity against LPS-stimulated mouse BV2 cells assessed as cell viability at 20 uM after 24 hrs by MTT assay relative to control
- Format: cell-based, BV-2
- assayConditions: read-out: Activity
The answer is to be given in %; state only the numeric part.

See these solved cases before continuing.
> print(dat)
                         smilesnotation            reportedmetric  recordedresult
1         C=CCc1ccc(O)c(-c2cc(CO)on2)c1  viability at 24 h, 20 µM             126
2  C=CCc1ccc(O)c(-c2ccc(OC)c(CC=C)c2)c1  viability at 24 h, 20 µM             115
3            CCCn1ccc(-c2cc(CC)ccc2O)n1  viability at 24 h, 20 µM             109
4        C=CCOCc1cc(-c2cc(Br)ccc2OC)no1  viability at 24 h, 20 µM            94.6

Prompt line: // viability at 24 h, 20 µM lookup, key: COc1ccc(Br)cc1-c1ccn(-c2ccccc2)n1
Response line: 124

Prompt line: Can you check C=CCn1ccc(-c2cc(C=C)ccc2O)n1 next?
Response line: 105

Prompt line: Can you check C=CCc1ccc(OC)c(-c2ccn(-c3ccccc3)n2)c1 next?
Response line: 68.6

====

- Test system: BV-2
- testProtocol: Anti-inflammatory activity in mouse BV2 cells assessed as inhibition of LPS-induced nitric oxide production after 24 hrs by griess assay
- Assay type: functional, cell-based
- assayConditions: BV-2, 24 h
reportedMetric: IC50

See these solved cases before continuing.
> print(dat)
                smilesnotation  systemtested  recordedresult
1   CCCn1ccc(-c2cc(CC)ccc2O)n1          BV-2        > 200 µM
2  CCCc1cc(-c2cc(Br)ccc2OC)no1          BV-2        > 200 µM

Prompt line: // IC50 lookup, key: C=CCOCc1cc(-c2cc(Br)ccc2OC)no1
Response line: 90.4 µM

Prompt line: Can you check C=CCOCc1cc(-c2cc(CC=C)ccc2OC)no1 next?
Response line: 28.7 µM

Prompt line: Can you check COc1ccc(Br)cc1-c1ccn(-c2ccccc2)n1 next?
Response line: > 200 µM

Prompt line: Can you check C=CCc1ccc(O)c(-c2ccn(-c3ccccc3)n2)c1 next?
Response line: 73 µM

====

- Test system: BV-2
- testProtocol: Anti-inflammatory activity in mouse BV2 cells assessed as inhibition of LPS-induced nitric oxide production after 24 hrs by griess assay
- Assay type: functional, cell-based
- assayConditions: BV-2, 24 h
Reported IC50 by item:
The answer is to be given in µM; state only the numeric part.

Prompt line: // IC50 lookup, key: CNC(=N)NCCC[C@H](N)C(=O)O
Response line: 26.6

Prompt line: Can you check CCCc1ccc(O)c(-c2ccn(CCC)n2)c1 next?
Response line: 91.3

Prompt line: Can you check C=CCn1ccc(-c2cc(C=C)ccc2O)n1 next?
Response line: 30.5

Prompt line: Can you check C=CCc1ccc(O)c(-c2ccc(OC)c(CC=C)c2)c1 next?
Response line: 52.3

Prompt line: Can you check C=CCc1ccc(OC)c(-c2cc(COCC(=O)OCC)on2)c1 next?
Response line: 25.9

Prompt line: Can you check C=CCc1ccc(OC)c(-c2ccn(Cc3ccccc3)n2)c1 next?
Response line: 36

Prompt line: Can you check CCCc1ccc(O)c(-c2ccn(Cc3ccccc3)n2)c1 next?
Response line: 116

Prompt line: Can you check C=CCn1ccc(-c2cc(Br)ccc2O)n1 next?
Response line: 112

Prompt line: Can you check C=CCc1ccc(OC)c(-c2ccn(-c3ccccc3)n2)c1 next?
Response line: 8.92

Prompt line: Can you check C=CCc1ccc(O)c(-c2ccc(O)c(CC=C)c2)c1 next?
Response line: 17

Prompt line: Can you check C=CCc1ccc(O)c(-c2ccn(CC=C)n2)c1 next?
Response line: 1.2

Prompt line: Can you check CCCc1ccc(O)c(-c2cc[nH]n2)c1 next?
Response line: 60.2

Prompt line: Can you check C=CCc1ccc(O)c(-c2ccn(Cc3ccccc3)n2)c1 next?
Response line: 92.5

Prompt line: Can you check C=CCc1ccc(OC)c(-c2cc(CN3CCN(C(=O)OC(C)(C)C)CC3)on2)c1 next?
Response line: 76.9

Prompt line: Can you check CCCc1ccc(O)c(-c2ccn(-c3ccccc3)n2)c1 next?
Response line: 109

Prompt line: Can you check C=CCc1ccc(OC)c(-c2cc(CN3CCN(CC=C)CC3)on2)c1 next?
Response line: 111
